- TARGET OF ASSAY: Amyloid-beta precursor protein (Homo sapiens)
- ASSAY DETAILS: Inhibition of amyloid beta-42 self-aggregation (unknown origin) at 25 uM after 20 hrs by ThT fluorescence assay
Kindly state inhibition for each of the entries shown.
Numbers only, in %.

Below: 10 compounds and their reported inhibition.
COc1ccccc1/C=C/C(=O)CC(=O)/C=C/c1ccc(O)c(O)c1: 100
COc1ccc(/C=C/C(=O)CC(=O)/C=C/c2ccc(O)c(O)c2)cc1: 95
O=C(/C=C/c1cccc(O)c1)CC(=O)/C=C/c1ccc(O)c(O)c1: 99
O=C(/C=C/c1cccc([N+](=O)[O-])c1)CC(=O)/C=C/c1ccc(O)c(O)c1: 97
O=C(/C=C/c1ccc(O)c(O)c1)CC(=O)/C=C/c1cc(O)c(O)c(O)c1: 100
O=C(/C=C/c1cc(O)c(O)c(O)c1)CC(=O)/C=C/c1cc(O)c(O)c(O)c1: 46
O=C(/C=C/c1cccc(O)c1)CC(=O)/C=C/c1cccc(O)c1: 79
COc1cc(/C=C/c2cc(/C=C/c3ccc(O)c(OC)c3)[nH]n2)ccc1O [CURCUMIN PYRAZOLE]: 51
O=C(/C=C/c1ccc(O)cc1)CC(=O)/C=C/c1ccc(O)cc1: 75
COc1c(O)cc(/C=C/C(=O)CC(=O)/C=C/c2ccc(O)c(O)c2)cc1O: 100

Each compound below has a reported value. Please supply its inhibition.
1. O=C(/C=C/c1ccccc1O)CC(=O)/C=C/c1ccccc1O
2. Oc1ccc(/C=C/c2cc(/C=C/c3ccc(O)c(O)c3)[nH]n2)cc1O
3. COc1cccc(/C=C/C(=O)CC(=O)/C=C/c2ccc(O)c(O)c2)c1

Reply:
80
90
95

Query: Entry under review: `N#Cc1cccc(/C=C/C(=O)CC(=O)/C=C/c2ccc(O)c(O)c2)c1` . Reported inhibition?
Reply: 96
